target: HLA-B*44:02; experiment: IEDB peptide-MHC binding, purified MHC/competitive/radioactivity; filed as Kd, often an IC50 or EC50 that approximates it; bounds were set here for any values at or beyond the usual limits of such assays; conditions: source organism: Mammarenavirus brazilense
pKd: −log10 of the molar value.
test-readout: pKd

[[record]]
sequence_record = "REIGSLLHGL"
limit_sign = "="
numeric_result = 6.12

[[record]]
sequence_record = "YDQLLDSSL"
limit_sign = "≤"
numeric_result = 4.58

[[record]]
sequence_record = "HENKNATWCL"
limit_sign = "="
numeric_result = 5.34


###

biological target: HLA-A*31:01; assay: IEDB peptide-MHC binding, purified MHC/competitive/fluorescence; filed as Kd, often an IC50 or EC50 that approximates it; bounds were set here for any values at or beyond the usual limits of such assays; conditions: source organism: Listeria monocytogenes J0161
test-readout: Kd

[[record]]
sequence_record = "LLARFGLEK"
target_desc = "HLA-A*31:01"
result = "1400 nM"


Measured values drawn from the Immune Epitope Database (IEDB) for this set.
